Reference source for all entries: patent US12318403B2

target.entity: human wild type STING (WT STING) (Homo sapiens, UniProt Q86WV6, H232R)
Sequence (Q86WV6 whole entry H232R): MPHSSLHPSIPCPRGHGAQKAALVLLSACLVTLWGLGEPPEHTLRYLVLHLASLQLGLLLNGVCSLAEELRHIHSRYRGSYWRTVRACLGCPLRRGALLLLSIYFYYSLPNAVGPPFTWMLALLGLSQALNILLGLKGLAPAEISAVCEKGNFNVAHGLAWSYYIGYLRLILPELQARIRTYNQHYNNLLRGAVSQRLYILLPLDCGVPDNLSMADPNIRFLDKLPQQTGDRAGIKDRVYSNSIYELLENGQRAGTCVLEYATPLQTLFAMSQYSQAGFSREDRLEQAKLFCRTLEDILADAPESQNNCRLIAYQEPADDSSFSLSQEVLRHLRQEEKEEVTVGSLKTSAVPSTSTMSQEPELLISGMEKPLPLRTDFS
experimental.protocol: 293T WT STING standard reporter assay
Assay type: cell-based
condition.context: 293T wtSTING-FL cells; standard reporter assay without digitonin; 7 hours; ISRE firefly luciferase; read-out: 293T WT STING EC50
property: EC50 (nM)

compound	measurement
Nc1nc2c(ncn2[C@@H]2O[C@@H]3COP(=O)(S)CO[C@H]4[C@@H](F)[C@H](n5cnc6c(N)ncnc65)O[C@@H]4COP(=O)(S)O[C@@H]2[C@@H]3F)c(=O)[nH]1 (single isomer, unassigned) [Compound 17d]	400

A. CC(C)(C)C(=O)OCOP1(=O)CO[C@H]2[C@@H](F)[C@H](n3cnc4c(N)ncnc43)O[C@@H]2COP(=O)(OCOC(=O)C(C)(C)C)O[C@@H]2[C@H](F)[C@@H](CO1)O[C@H]2n1cnc2c(N)ncnc21 (single isomer, unassigned) [Compound 81b]
B. CC(C)(C)C(=O)OCOP1(=O)CO[C@H]2[C@@H](F)[C@H](n3cnc4c(N)ncnc43)O[C@@H]2COP(=O)(OCOC(=O)C(C)(C)C)O[C@@H]2[C@H](F)[C@@H](CO1)O[C@H]2n1cnc2c(=O)[nH]cnc21 (single isomer, unassigned) [Compound 77b]
C. CCCCCCCCCCCC(=O)OCOP1(=O)CO[C@H]2[C@@H](F)[C@H](n3cnc4c(N)ncnc43)O[C@@H]2COP(=O)(OCOC(=O)CCCCCCCCCCC)O[C@@H]2[C@H](F)[C@@H](CO1)O[C@H]2n1cnc2c(=O)[nH]cnc21 (single isomer, unassigned) [Compound 79c]
D. CC(C)(C)C(=O)OCOP1(=O)CO[C@H]2[C@@H](F)[C@H](n3cnc4c(N)ncnc43)O[C@@H]2COP(=O)(OCOC(=O)C(C)(C)C)O[C@@H]2[C@H](F)[C@@H](CO1)O[C@H]2n1cnc2c(=O)[nH]cnc21 (single isomer, unassigned) [Compound 77a]
Query block: Arrange the 4 compounds from largest to smallest EC50. // ordering of labels required in reply
Result block: D, B, A, C
